Sourced from paper PMC9715617

Some compounds, each annotated with its measured IC50.
Target: SARS-CoV-2 3CL^pro (Severe acute respiratory syndrome coronavirus 2, UniProt P0DTD1)
Numeric answer only, unit nM assumed.

In [3]: df
Out[3]:
                                   compound  assay_result
0  O=C(NCc1ccccc1)[C@@H](c1cccnc1)N(C(=O)c1ccco1)c1ccc(-c2cccs2)cc1           750
1  O=C(N[C@@H](c1cccc(F)c1)C(F)(F)F)[C@@H](c1cnccn1)N(C(=O)c1ccco1)c1ccc(C2CCCCC2)cc1            17
2  O=C(Nc1ccc(N(Cc2ccsc2)C(=O)Cn2nnc3ccccc32)cc1)C1CC1 [ML300, reference compound]          4010

The compound identified as `O=C(NCc1c(F)c(F)c(F)c(F)c1F)[C@@H](c1cccnc1)N(C(=O)c1ccno1)c1ccc(-c2cccs2)cc1` registered its IC50 at 830

The compound identified as `C[C@H](NC(=O)[C@@H](c1cccnc1)N(C(=O)c1ccno1)c1ccc(C2CCCCC2)cc1)c1cccc(F)c1F` registered its IC50 at 90
